Hey, just so you know, these numbers are from PubChem BioAssay (EPA / NIEHS).

# Read-out: Monocyte Chemoattractant Protein-1 (MCP1), CCL2 (gene 6347)
# experimentSummary: BSK_LPS_MCP1: BioMAP Diversity Plus: LPS Assay for Monocyte Chemoattractant Protein-1 (MCP1) Biomarker Activity (AID 2283081)
# testConditions: primary human HUVEC with PBMC; actives raise or lower the signal
Calls of active or inactive are those of the source. The calls were made as follows: active = hit-call score of the fitted dose curve at least 0.9, where 1 is the maximum; inactive = score below 0.9.
Hi! Could you answer with just one of these? active, inactive

c1ccc2c(c1)Cc1ccccc1-2; inactive

Prompt: // return assay outcome for CCCCCCCCCCCCc1ccccc1S(=O)(=O)O
Response: inactive

Prompt: Then this compound: CCc1nn(C2CCCCC2)c2cc(C3(C#N)CCC(C(=O)O)CC3)ccc12 (stereo not given)
Response: active

Prompt: Then this compound: CCCCCCC(=O)O
Response: inactive

Prompt: Then this compound: CN1CCN(c2ccccc2/C=C2\SCCN(c3ccc(Cl)c(Cl)c3)C2=O)CC1
Response: active

Prompt: Then this compound: CC(C)(C)CC(C)(C)c1ccc(O)c(-n2nc3ccccc3n2)c1
Response: inactive
